# E (1%, 1 cm) annotations
- assay: UV absorption properties (λmax, molar extinction coefficient ε, efficiency E 1%, 1 cm)
- Assay type: physicochemical
- condition set: Table 13B; values in order of the λmax values
Reply with just the number.

Worked set:
CC1(C)CCN(c2ccc(C(C)(C)C)cc2)C=C1C(=O)N(Cc1ccc(CN(C(=O)C2=CN(c3ccc(C(C)(C)C)cc3)CCC2(C)C)c2ccccc2)cc1)c1ccccc1 ... 567
Cc1ccc(N2C=C(C(=O)N(CCCCN(C(=O)C3=CN(c4ccc(C)cc4)CCC3(C)C)c3ccccc3)c3ccccc3)C(C)(C)CC2)cc1 ... 608
CCCCCCC(=O)C1=CN(c2ccc(N3C=C(C(=O)CC(C)CCC=C(C)C)C(C)(C)CC3)cc2)CCC1(C)C (stereo not shown) ... 934

Please look up its E (1%, 1 cm): "CC1(C)CCN(C(C)(C)C)C=C1C(=O)N(Cc1ccc(CN(C(=O)C2=CN(C(C)(C)C)CCC2(C)C)c2ccccc2)cc1)c1ccccc1"
391

Please look up its E (1%, 1 cm): "CCCCNc1ccc(C(=O)C2=CN(C(C)(C)C)CCC2(C)C)cc1"
626

Please look up its E (1%, 1 cm): "CC(C)(C)CC(C)(C)N1C=C(C(=O)/C=C/c2ccc(Br)cc2)C(C)(C)CC1"
437

Please look up its E (1%, 1 cm): "CCC(=O)C1=CN(c2ccc(N3C=C(C(=O)CC)C(C)(C)CC3)cc2)CCC1(C)C"
1290

Please look up its E (1%, 1 cm): "CCCCCCCCCCCCCCCCCC(=O)C1=CN(c2ccc(N3C=C(C(=O)CCCCCCCCCCCCCCCCC)C(C)(C)CC3)cc2)CCC1(C)C"
447

Please look up its E (1%, 1 cm): "CCC(=O)C1=CN(c2ccc(Oc3ccc(N4C=C(C(=O)CC)C(C)(C)CC4)cc3)cc2)CCC1(C)C"
1121

Please look up its E (1%, 1 cm): "CC1(C)CCN(C(C)(C)C)C=C1C(=O)c1c(F)cccc1F"
1162

Please look up its E (1%, 1 cm): CCCCC(CC)CN(c1ccc(C(=O)C2=CN(C(C)(C)C)CCC2(C)C)cc1)c1ccc(C(=O)C2=CN(C(C)(C)C)CCC2(C)C)cc1.Cl (stereo not shown)
653

Please look up its E (1%, 1 cm): "Cc1cc(/C=C/C(=O)C2=CN(C(C)(C)C)CCC2(C)C)c(C)cc1Br"
532

Please look up its E (1%, 1 cm): "CCCOC(=O)CCC(=O)C1=CN(c2ccc(N3C=C(C(=O)CCC(=O)OCCC)C(C)(C)CC3)cc2)CCC1(C)C"
820

###

- assay: UV absorption properties (λmax, molar extinction coefficient ε, efficiency E 1%, 1 cm)
- Format: physicochemical
Rule: UV λmax of 300 nm or more gives label 1; anything lower gives label 0.

CC(C)CN1C=C(C(=O)c2ccc(N(C)C)cc2)C(C)(C)CC1 ... label 1
COc1ccc(N2C=CC(C)(C)CC2)cc1 ... label 0
CC(C)CN1C=C(S(=O)(=O)c2ccccc2)C(C)(C)CC1 ... label 0
CC(C)CN1C=C(C(=O)C(c2ccccc2)c2ccccc2)C(C)(C)CC1 ... label 1
CCC(=O)C1=CN(c2ccccc2)CCC1(C)C ... label 1
CC1(C)CCN(C(C)(C)C)C=C1C(=O)/C=C/c1ccccc1 ... label 1
CC(C)CN1C=C(C(=O)c2cc(C(=O)C3=CN(CC(C)C)CCC3(C)C)cc(C(=O)C3=CN(CC(C)C)CCC3(C)C)c2)C(C)(C)CC1 ... label 1

Does UV λmax meet or surpass 300 nm for "CCC(=O)C1=CN(c2ccc(C)cc2)CCC1(C)C" ?
label 1

###

- assay: UV absorption properties (λmax, molar extinction coefficient ε, efficiency E 1%, 1 cm)
- Type: physicochemical
- condition set: Table 13B, miscellaneous compounds
# λmax annotations
Phrase the answer as number then unit, nothing more needed.

Worked set:
Cc1cc(C)c(C(=O)C2=CN(C(C)(C)C)CCC2(C)C)c(C)c1 ... 311 nm
CCCCCCCCCCCCCCCCCC(=O)C1=CN(c2ccc(N3C=C(C(=O)CCCCCCCCCCCCCCCCC)C(C)(C)CC3)cc2)CCC1(C)C ... 359 nm
CCCCCCC(=O)C1=CN(c2ccc(N3C=C(C(=O)CC(C)CCC=C(C)C)C(C)(C)CC3)cc2)CCC1(C)C (stereo not shown) ... 358 nm
CC1(C)CCN(C(C)(C)C)C=C1C(=O)/C=C/c1ccc(/C=C/C(=O)C2=CN(C(C)(C)C)CCC2(C)C)c([N+](=O)[O-])c1 ... 391 nm
CC1(C)CCN(C(C)(C)C)C=C1C(=O)/C=C/c1ccc(C(=O)C2=CN(C(C)(C)C)CCC2(C)C)cc1 ... 360 nm

Please look up its λmax: "CCCOC(=O)CCC(=O)C1=CN(c2ccc(N3C=C(C(=O)CCC(=O)OCCC)C(C)(C)CC3)cc2)CCC1(C)C"
358 nm

Please look up its λmax: CCCCC(CC)CN(c1ccc(C(=O)C2=CN(C(C)(C)C)CCC2(C)C)cc1)c1ccc(C(=O)C2=CN(C(C)(C)C)CCC2(C)C)cc1 (stereo not shown)
316 nm

Please look up its λmax: CCCCC(CC)COC(=O)CCC(=O)C1=CN(c2ccc(N3C=C(C(=O)CCC(=O)OCC(CC)CCCC)C(C)(C)CC3)cc2)CCC1(C)C (stereo not shown)
359 nm

###

- assay: UV absorption properties (λmax, molar extinction coefficient ε, efficiency E 1%, 1 cm)
- Format: physicochemical
- condition set: Table 6B; in M-1 cm-1
# ε annotations
Reply with just the number.

Please look up its ε: C=CC(=O)C1=CN(C(C)(C)C)CCC1(C)C [drawing 92]
24907

Please look up its ε: CC(C)(C)Oc1ccc(C(=O)C2=CN(C(C)(C)C)CCC2(C)C)cc1 [drawing 96]
32556

Please look up its ε: CC1(C)CCN(C(C)(C)C)C=C1C(=O)/C=C/c1ccccc1 [drawing 93]
23198

Please look up its ε: CC1(C)CCN(C(C)(C)C)C=C1C(=O)c1ccc(C(=O)C2=CN(C(C)(C)C)CCC2(C)C)cc1 [drawing 97]
33982

Please look up its ε: CN(C)c1ccc(C(=O)C2=CN(C(C)(C)C)CCC2(C)C)cc1 [drawing 95]
24966

Please look up its ε: CC1(C)CCN(C(C)(C)C)C=C1C(=O)c1ccc(Br)cc1 [drawing 94]
27506

Please look up its ε: CC1(C)CCN(C(C)(C)C)C=C1C(=O)c1ccc(C(=O)O)cc1 [drawing 98]
17300

###

- assay: UV absorption properties (λmax, molar extinction coefficient ε, efficiency E 1%, 1 cm)
- Type: physicochemical
readout label: UV λmax (nm)
Reply numerically in nm, unit not repeated.

Please look up its UV λmax: "CC1(C)CCN(c2cccc3ccccc23)C=C1C(=O)C(F)(F)F"
325

Please look up its UV λmax: "CCC(=O)C1=CN(c2ccc(OC)cc2)CCC1(C)C"
328

Please look up its UV λmax: "CC1(C)C=CN(c2ccccc2)CC1"
278

###

- assay: UV absorption properties (λmax, molar extinction coefficient ε, efficiency E 1%, 1 cm)
- Format: physicochemical
- condition set: Table 8a, N-phenyl compounds
readout label: λmax (nm)
Reply numerically in nm, unit not repeated.

CCC(=O)C1=CN(c2ccc(OC)cc2)CCC1(C)C [drawing 127] ... 328
CC1(C)C=CN(c2ccccc2)C=C1 [drawing 125] ... 285
COc1ccc(N2C=C(C(=O)c3ccc(F)cc3)C(C)(C)CC2)cc1 [drawing 129] ... 341
C=CC(=O)C1=CN(c2ccc(OC)cc2)CCC1(C)C [drawing 128] ... 350
CC1(C)C=CN(c2ccccc2)CC1 [drawing 121] ... 278

Please look up its λmax: CCC(=O)C1=CN(c2ccccc2)CCC1(C)C [drawing 122]
321

Please look up its λmax: CC1(C)CCN(c2ccccc2)C=C1C(=O)c1ccc(Br)cc1 [drawing 124]
338

Please look up its λmax: COc1ccc(N2C=CC(C)(C)CC2)cc1 [drawing 126]
275

Please look up its λmax: C=CC(=O)C1=CN(c2ccccc2)CCC1(C)C [drawing 123]
346

###

- assay: Critical wavelength (λcrit), approximate in-house measurement
- Type: physicochemical
- condition set: Table 5
readout label: λcrit (nm)
Reply numerically in nm, unit not repeated.

Worked set:
CC1(C)CCN(C(C)(C)C)C=C1C(=O)CCCCCCCCC(=O)C1=CN(C(C)(C)C)CCC1(C)C [drawing 72] ... 322
CC1(C)CCN(C(C)(C)C)C=C1C(=O)c1ccncc1 [drawing 75] ... 354
CC1(C)CCN(C(C)(C)C)C=C1C(=O)C1=CN(C(C)(C)C)CCC1(C)C [drawing 73] ... 351

Please look up its λcrit: CC1(C)CCN(C(C)(C)C)C=C1C(=O)CC(=O)c1ccccc1 [drawing 76]
385

Please look up its λcrit: CC1(C)CCN(C(C)(C)C)C=C1C(=O)COc1ccccc1 [drawing 74]
329
